System: E. coli OC2605
PROTOCOL_DETAILS: MIC, microdilution broth method (NCCLS)
Type: cell-based
CONDITION_DETAILS: A: E. coli OC2605, 35° C., 16-20 hours
Description: Minimal inhibitory concentration (MIC) has been an indicator of in vitro antibacterial activity widely used in the art. The in vitro antimicrobial activity of the compounds was determined by the microdilution broth method following the test method from the National Committee for Clinical Laboratory Standards (NCCLS). […] Following inoculation of the microdilution trays, the trays are incubated at 35° C. for 16-20 hours and then read. […]
MEASURED_ATTRIBUTE: MIC

Input: // query MIC value for entry `CC[C@H]1OC(=O)[C@H](C)C(=O)[C@H](C)[C@@H](O[C@@H]2O[C@H](C)C[C@H](N(C)C)[C@H]2O)[C@](C)(OC(N)=O)C[C@@H](C)C(=O)[C@H](C)[C@H]2NC(=O)O[C@@]21C`
Output: >16 µg/mL

Input: // query MIC value for entry `CC[C@H]1OC(=O)[C@H](C)C(=O)[C@H](C)[C@@H](O[C@@H]2O[C@H](C)C[C@H](N(C)C)[C@H]2O)[C@](C)(OC(=O)NC/C=C/c2cn(-c3ncccn3)cn2)C[C@@H](C)C(=O)[C@H](C)[C@H]2NC(=O)O[C@@]21C`
Output: 16 µg/mL

Input: // query MIC value for entry `CC[C@H]1OC(=O)[C@H](C)C(=O)[C@H](C)[C@@H](O[C@@H]2O[C@H](C)C[C@H](N(C)C)[C@H]2O)[C@](C)(OC(=O)NCc2ccc(-n3cccn3)c(F)c2)C[C@@H](C)C(=O)[C@H](C)[C@H]2NC(=O)O[C@@]21C`
Output: >16 µg/mL

Input: // query MIC value for entry `CC[C@H]1OC(=O)[C@H](C)C(=O)[C@H](C)[C@@H](O[C@@H]2O[C@H](C)C[C@H](N(C)C)[C@H]2O)[C@](C)(OC(=O)NCc2ccc(Oc3ncccn3)cc2)C[C@@H](C)C(=O)[C@H](C)[C@H]2NC(=O)O[C@@]21C`
Output: >16 µg/mL
